Origin of values: ChEMBL document CHEMBL3045372

Target: Neuronal acetylcholine receptor; alpha4/beta2 (Rattus norvegicus) (UniProt P09483+P12390)
Test: Displacement of [3H]cytisine from alpha4beta2 nicotinic acetylcholine receptor in Rattus norvegicus (rat) cerebral cortex at 10 uM after 75 min by scintillation counting
Assay type: tissue-based
experimental readout: inhibition

INSERT INTO assay_data (compound_structure, recorded_measurement) VALUES
  ('CC(C)N(CCOc1cccnc1)C(C)C', '64%'),
  ('CN(C)CCOc1cccc([N+](=O)[O-])c1', '33%'),
  ('CN(C)CCOc1cccnc1', '95%');

// switching to the query molecule
Task: Query: inhibition; subject: `CC(C)N(CCOc1cccc([N+](=O)[O-])c1)C(C)C`
Output: 0%
